# target: NAD-dependent protein deacetylase sirtuin-1 (Homo sapiens)
# Sequence (Q96EB6 whole entry): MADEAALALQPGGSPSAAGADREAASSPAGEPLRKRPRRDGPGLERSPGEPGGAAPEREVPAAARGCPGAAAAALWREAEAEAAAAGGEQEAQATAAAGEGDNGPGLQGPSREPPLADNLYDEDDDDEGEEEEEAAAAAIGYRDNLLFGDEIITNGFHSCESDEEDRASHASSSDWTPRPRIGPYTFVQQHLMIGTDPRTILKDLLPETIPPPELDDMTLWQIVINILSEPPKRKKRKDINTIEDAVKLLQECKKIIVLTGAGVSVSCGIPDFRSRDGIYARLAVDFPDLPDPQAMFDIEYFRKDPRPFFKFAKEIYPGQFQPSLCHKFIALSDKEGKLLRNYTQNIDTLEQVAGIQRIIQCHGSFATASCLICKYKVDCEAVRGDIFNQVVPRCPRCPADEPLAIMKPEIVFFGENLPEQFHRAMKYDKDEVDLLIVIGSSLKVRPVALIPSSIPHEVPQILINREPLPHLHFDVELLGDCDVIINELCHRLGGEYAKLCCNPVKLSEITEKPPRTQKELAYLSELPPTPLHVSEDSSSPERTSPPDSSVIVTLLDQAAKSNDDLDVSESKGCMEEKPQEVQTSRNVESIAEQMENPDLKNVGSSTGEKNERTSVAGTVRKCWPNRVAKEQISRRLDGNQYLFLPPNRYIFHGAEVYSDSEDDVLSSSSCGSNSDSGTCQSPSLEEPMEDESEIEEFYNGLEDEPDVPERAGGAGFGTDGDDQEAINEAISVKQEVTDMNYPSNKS
# assay info: Inhibition of recombinant SIRT1 using ZMAL substrate after 4 hrs by homogeneous fluorescence assay
# condition context: read-out: IC50
pIC50: −log10 of the molar value.

{"columns": ["smiles input", "target", "pIC50"],
 "data": [
  ["O=C1NC(=S)NC(=O)C1=Cc1ccc(OCc2ccc(Br)cc2)cc1", "NAD-dependent protein deacetylase sirtuin-1 (Homo sapiens)", 5.00],
  ["CN1C(=O)/C(=C/c2c[nH]c3ccccc23)C(=O)NC1=S", "NAD-dependent protein deacetylase sirtuin-1 (Homo sapiens)", 4.37],
  ["CCN1C(=O)/C(=C/c2ccc(OCc3ccccc3)cc2)C(=O)NC1=S", "NAD-dependent protein deacetylase sirtuin-1 (Homo sapiens)", 4.27],
  ["C=CCN1C(=O)/C(=C/c2ccc(OCc3ccccc3)cc2)C(=O)NC1=S", "NAD-dependent protein deacetylase sirtuin-1 (Homo sapiens)", 4.43],
  ["O=C1NC(=S)NC(=O)C1=Cc1c[nH]c2ccccc12", "NAD-dependent protein deacetylase sirtuin-1 (Homo sapiens)", 5.23],
  ["C=CCN1C(=O)/C(=C/c2ccc(-c3cccc(Cl)c3Cl)o2)C(=O)NC1=S", "NAD-dependent protein deacetylase sirtuin-1 (Homo sapiens)", 5.28],
  ["O=C1NC(=S)NC(=O)C1=Cc1ccc(-c2cccc(Cl)c2Cl)o1", "NAD-dependent protein deacetylase sirtuin-1 (Homo sapiens)", 5.47],
  ["CN1C(=O)/C(=C/c2ccc(OCc3ccccc3)cc2)C(=O)NC1=S", "NAD-dependent protein deacetylase sirtuin-1 (Homo sapiens)", 4.25],
  ["COc1cc(C=C2C(=O)NC(=S)NC2=O)ccc1OCc1ccccc1Cl", "NAD-dependent protein deacetylase sirtuin-1 (Homo sapiens)", 5.17],
  ["CC(C)c1ccc(C=C2C(=O)NC(=S)NC2=O)cc1", "NAD-dependent protein deacetylase sirtuin-1 (Homo sapiens)", 4.91],
  ["O=C1NC(=S)NC(=O)C1=Cc1ccc(OCc2ccccc2)cc1", "NAD-dependent protein deacetylase sirtuin-1 (Homo sapiens)", 4.98],
  ["O=C1NC(=S)NC(=O)C1=Cc1ccc(-c2ccccc2)cc1", "NAD-dependent protein deacetylase sirtuin-1 (Homo sapiens)", 4.30],
  ["CCN1C(=O)/C(=C/c2c[nH]c3ccccc23)C(=O)NC1=S", "NAD-dependent protein deacetylase sirtuin-1 (Homo sapiens)", 4.05],
  ["O=C1NC(=S)NC(=O)C1=Cc1cn(Cc2ccccc2)c2ccccc12", "NAD-dependent protein deacetylase sirtuin-1 (Homo sapiens)", 4.55],
  ["COc1ccc2c(C=C3C(=O)NC(=S)NC3=O)cccc2c1", "NAD-dependent protein deacetylase sirtuin-1 (Homo sapiens)", 5.22]
]}

Data credit: ChEMBL document CHEMBL2203031
